Molecular target: Free fatty acid receptor 1 (Homo sapiens)
Sequence (O14842 whole entry): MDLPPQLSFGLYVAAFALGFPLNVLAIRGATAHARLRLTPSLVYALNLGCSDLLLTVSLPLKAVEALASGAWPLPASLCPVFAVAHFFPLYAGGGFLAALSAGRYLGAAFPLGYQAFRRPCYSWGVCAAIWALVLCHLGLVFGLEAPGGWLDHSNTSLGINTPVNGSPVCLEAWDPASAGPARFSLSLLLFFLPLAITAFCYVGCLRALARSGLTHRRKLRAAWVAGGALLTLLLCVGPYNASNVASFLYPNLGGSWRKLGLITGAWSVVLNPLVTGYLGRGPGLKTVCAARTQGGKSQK
Test: Agonist activity at recombinant human GPR40 expressed in HEK293 cells assessed as increase in IP1 accumulation measured after 60 mins by HTRF assay
Format: functional, cell-based
measured property: pEC50
Bear in mind: pEC50 is minus log10 of a mol/L concentration; give just that figure.

Past entries and their recorded results:
* COc1cc(-c2ccc(C3CCc4ccc([C@H](C5CC5)[C@H](C)C(=O)O)cc4O3)c(F)c2)ccn1 (mixture of isomers) | 8.09
* COc1ccc(F)c(-c2ccc(C3CCc4ccc([C@@H](CC(=O)O)C5CC5)cc4O3)cc2)c1 (mixture of isomers) | 8.15
* COc1ccc(F)c(-c2ccc(C3CCc4ccc([C@H](C5CC5)[C@H](C)C(=O)O)cc4O3)cc2)c1 (stereo in doubt; 15) | 8.59
* O=C(O)C[C@H](c1ccc2c(c1)OC(c1ccc(-c3ccccc3)cc1)CC2)C1CC1 (single isomer, unassigned) | 6.88

# lookup: Free fatty acid receptor 1 (Homo sapiens) pEC50, key = COc1ccc(F)c(-c2ccc(C3CCc4ccc([C@H](C5CC5)[C@H](C)C(=O)O)cc4O3)cn2)c1 (stereo in doubt; 19) 7.89

The values you see were collected from ChEMBL document CHEMBL4145665.
